Tested on: CATIE Caucasian schizophrenia patients
Protocol notes: CATIE Phase 1 drug response: change in total PANSS (LOCF), drug switchers, segmented by SULT4A1-1 status
Type: in vivo, human
Run conditions: Table 16; 20% decrease in PANSS threshold; SULT4A1-1 positive group (sign not given)
Readout type: Responder (number)
The reply should be a number, written without any unit.

Examples from the recorded data:
1) O=C1Cc2cc(CCN3CCN(c4nsc5ccccc45)CC3)c(Cl)cc2N1 : 3
2) Cc1cc2c(s1)Nc1ccccc1N=C2N1CCN(C)CC1 : 10

Task item: Which Responder (number) is reported for this compound? "OCCOCCN1CCN(C2=Nc3ccccc3Sc3ccccc32)CC1"
Reply: 7

Task item: And the next one, "OCCN1CCN(CCCN2c3ccccc3Sc3ccc(Cl)cc32)CC1" ?
Reply: 5

---

Items are presented alongside their recorded ≦−20% (number of individuals; responders).
Test system: CATIE African American schizophrenia patients
Protocol notes: CATIE drug response: change in total PANSS (LOCF), segmented by SULT4A1-1 status, African Americans
Assay type: in vivo, human
Run conditions: SULT4A1-1 Negative
Just the number, please, no unit after it.

1. O=C1Cc2cc(CCN3CCN(c4nsc5ccccc45)CC3)c(Cl)cc2N1 : 4
2. OCCOCCN1CCN(C2=Nc3ccccc3Sc3ccccc32)CC1 : 9
3. OCCN1CCN(CCCN2c3ccccc3Sc3ccc(Cl)cc32)CC1 : 10
4. Cc1cc2c(s1)Nc1ccccc1N=C2N1CCN(C)CC1 : 15

Turning now to a further compound:
Task item: Query the reported ≦−20% (number of individuals; responders) for CATIE African American schizophrenia patients; item: "Cc1nc2n(c(=O)c1CCN1CCC(c3noc4cc(F)ccc34)CC1)CCCC2"
Reply: 7

---

# ≧−20% (number of individuals; non-responders) values compiled below
Tested on: CATIE African American schizophrenia patients
Protocol notes: CATIE drug response: change in total PANSS (LOCF), segmented by SULT4A1-1 status, African Americans
Type: in vivo, human
Run conditions: SULT4A1-1 Negative
Please reply with the value in numeric form only.

Below, 3 compounds whose answers are already recorded.
1. OCCOCCN1CCN(C2=Nc3ccccc3Sc3ccccc32)CC1 [Quetiapine] : 25
2. Cc1nc2n(c(=O)c1CCN1CCC(c3noc4cc(F)ccc34)CC1)CCCC2 [Risperidone] : 34
3. Cc1cc2c(s1)Nc1ccccc1N=C2N1CCN(C)CC1 [Olanzapine] : 30

Task item: Param readout = ≧−20% (number of individuals; non-responders); param system = CATIE African American schizophrenia patients; param query = O=C1Cc2cc(CCN3CCN(c4nsc5ccccc45)CC3)c(Cl)cc2N1 [Ziprasidone] ; response: value
Reply: 22

Task item: Same question for OCCN1CCN(CCCN2c3ccccc3Sc3ccc(Cl)cc32)CC1 [Perphenazine] please.
Reply: 27

---

Tested on: CATIE African American schizophrenia patients
Protocol notes: CATIE drug response: change in total PANSS (LOCF), segmented by SULT4A1-1 status, African Americans
Format: in vivo, human
Run conditions: SULT4A1-1 Positive
Each entry below lists one item and its recorded ≧−20% (number of individuals; non-responders) value.

See these solved cases before continuing.
1. OCCN1CCN(CCCN2c3ccccc3Sc3ccc(Cl)cc32)CC1 [Perphenazine] : 2
2. Cc1cc2c(s1)Nc1ccccc1N=C2N1CCN(C)CC1 [Olanzapine] : 3
3. Cc1nc2n(c(=O)c1CCN1CCC(c3noc4cc(F)ccc34)CC1)CCCC2 [Risperidone] : 2
4. OCCOCCN1CCN(C2=Nc3ccccc3Sc3ccccc32)CC1 [Quetiapine] : 4

Shift focus to the following entry.
Task item: Item O=C1Cc2cc(CCN3CCN(c4nsc5ccccc45)CC3)c(Cl)cc2N1 [Ziprasidone] with CATIE African American schizophrenia patients - ≧−20% (number of individuals; non-responders)?
Reply: 3

---

Tested on: CATIE Caucasian schizophrenia patients
Protocol notes: Time to discontinuation for all causes in the CATIE study
Format: in vivo, human
Run conditions: SULT4A1-1 Negative
Marks after values point to notes of the source that are not given here.
Readout type: Time to discontinuation, mean time in months

// worked examples, Time to discontinuation, mean time in months included
1. O=C1Cc2cc(CCN3CCN(c4nsc5ccccc45)CC3)c(Cl)cc2N1 : 8.2*** Months
2. OCCOCCN1CCN(C2=Nc3ccccc3Sc3ccccc32)CC1 : 8.6*** Months
3. Cc1nc2n(c(=O)c1CCN1CCC(c3noc4cc(F)ccc34)CC1)CCCC2 : 11.3 Months

Field: next molecule
Task item: Request: Time to discontinuation, mean time in months, test system CATIE Caucasian schizophrenia patients, entry "Cc1cc2c(s1)Nc1ccccc1N=C2N1CCN(C)CC1"
Reply: 10.0** Months
